# credit: ChEMBL document CHEMBL3616451

System: Bacillus subtilis
PROTOCOL_DESCRIPTION: Antibacterial activity against Bacillus subtilis ATCC 23857 assessed as growth inhibition at 30 ug/ml relative to control
Format: functional
Calls of active or inactive are those of the source. The rule behind the calls is not given here.
ASSAY_ENDPOINT: growth inhibition (GI)

INSERT INTO assay_data (compound, result) VALUES
  ('COC(=O)CC[C@@H](C)[C@H]1CC[C@H]2[C@H]3[C@H]([C@H](NC(=O)[C@H]4CCCN4)C(=O)[C@]12C)[C@@]1(C)CC[C@@H](OC(C)=O)C[C@H]1C[C@H]3OC(C)=O', 'inactive'),
  ('COC(=O)CC[C@@H](C)[C@H]1CC[C@H]2[C@H]3[C@H]([C@H](NC(=O)[C@H]4CCCN4C(=O)OC(C)(C)C)C(=O)[C@]12C)[C@@]1(C)CC[C@@H](OC(C)=O)C[C@H]1C[C@H]3OC(C)=O', 'inactive'),
  ('COC(=O)CC[C@@H](C)[C@H]1CC[C@H]2[C@H]3[C@H]([C@H](n4cc(-c5ccccn5)nn4)C(=O)[C@]12C)[C@@]1(C)CC[C@@H](OC(C)=O)C[C@H]1C[C@H]3OC(C)=O', 'inactive'),
  ('COC(=O)CC[C@@H](C)[C@H]1CC[C@H]2[C@H]3[C@H]([C@H](NC(=O)C(CO)NC(=O)OC(C)(C)C)C(=O)[C@]12C)[C@@]1(C)CC[C@@H](OC(C)=O)C[C@H]1C[C@H]3OC(C)=O (stereo not given in full)', 'inactive');

Now for another entry.
Lab note: need growth inhibition (GI) for `CCOC(=O)N[C@@H]1C(=O)[C@]2(C)[C@@H]([C@H](C)CCC(=O)OC)CC[C@H]2[C@H]2[C@H]1[C@@]1(C)CC[C@@H](OC(C)=O)C[C@H]1C[C@H]2OC(C)=O` on Bacillus subtilis, anyone have it?
inactive
